# test-target: HLA-B*13:01 (with beta-2-microglobulin) (Homo sapiens, UniProt A0A583ZBB4)
measure-name: pKd
Quick note: pKd means taking -log10 of the concentration in moles per liter.

Prompt line: // map Nc1ccc(S(=O)(=O)c2ccc(N)cc2)cc1 [DDS] to recorded pKd (system: HLA-B*13:01 (with beta-2-microglobulin) (Homo sapiens, UniProt A0A583ZBB4))
Response line: 4.16
